Molecular target: full-length beta-Catenin (Uniprot ID P35222) (Homo sapiens)
Construct: 10 nM full-length beta-Catenin (Uniprot ID P35222)
Sequence (P35222 1-781): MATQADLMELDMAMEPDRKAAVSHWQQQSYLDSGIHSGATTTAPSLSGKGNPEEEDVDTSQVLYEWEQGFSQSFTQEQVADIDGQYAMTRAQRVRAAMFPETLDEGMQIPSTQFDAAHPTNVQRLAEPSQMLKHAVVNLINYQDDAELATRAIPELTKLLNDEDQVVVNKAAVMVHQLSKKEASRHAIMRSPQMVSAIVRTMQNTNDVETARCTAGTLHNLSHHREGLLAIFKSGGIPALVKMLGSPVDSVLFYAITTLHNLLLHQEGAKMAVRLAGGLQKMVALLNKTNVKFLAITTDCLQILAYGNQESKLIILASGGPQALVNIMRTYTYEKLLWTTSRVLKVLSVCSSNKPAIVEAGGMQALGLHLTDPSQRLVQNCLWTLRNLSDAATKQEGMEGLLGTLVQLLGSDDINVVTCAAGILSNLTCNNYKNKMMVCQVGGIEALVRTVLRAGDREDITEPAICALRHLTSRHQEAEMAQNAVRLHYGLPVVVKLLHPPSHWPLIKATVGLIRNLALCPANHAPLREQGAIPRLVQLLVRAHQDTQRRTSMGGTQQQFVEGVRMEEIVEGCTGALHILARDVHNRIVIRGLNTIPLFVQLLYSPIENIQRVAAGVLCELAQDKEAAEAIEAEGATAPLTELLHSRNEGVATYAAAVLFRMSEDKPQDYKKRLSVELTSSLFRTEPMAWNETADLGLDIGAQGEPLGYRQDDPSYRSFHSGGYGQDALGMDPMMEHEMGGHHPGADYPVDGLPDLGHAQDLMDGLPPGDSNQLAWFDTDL
Assay: Fluorescence polarization IC50 (beta-catenin / 5FAM-TCF4 10-53 competition)
Assay type: binding
Conditions: fluorescence polarization; read-out: beta-Catenin FP IC50
Reported metric: pIC50
Expect pIC50 as a plain number equal to -log10 of the molar concentration.

Answered cases to consult:
[[record]]
molecule = "CC[C@@H](C)[C@@H](NC(=O)[C@H](CCC(N)=O)NC(=O)[C@H](Cc1csc2ccccc12)NC(=O)[C@H](Cc1ccccc1)NC(=O)[C@]1(C)CCCCCCC=CCCCC2(CCCC=CC[C@]3(CCCN3C(C)=O)C(=O)N[C@@H](CC(=O)O)C(=O)N[C@@H](CC(C)C)C(=O)N2)C(=O)N[C@@H](CC(=O)O)C(=O)N[C@@H](CCC(=O)O)C(=O)N[C@@H](C)C(=O)N[C@@H](C)C(=O)N[C@@H](Cc2ccccc2)C(=O)N[C@@H](CC(N)=O)C(=O)N1)C(N)=O (stereo partly drawn) [I-734]"
reported_metric = "pIC50"
reading = 6.43

[[record]]
molecule = "CC[C@H](C)[C@@H]1NC(=O)[C@H](CC(=O)O)NC(=O)[C@]2(CC=CCCCC3(CCCC=CCCCCCC[C@@](C)(C(=O)N[C@@H](Cc4ccsc4)C(=O)N[C@@H](Cc4csc5ccccc45)C(=O)N[C@@H](Cc4c[nH]cn4)C(N)=O)NC(=O)[C@H](CC(N)=O)NC(=O)[C@H](Cc4ccccc4)NC(=O)[C@H](C)NC(=O)[C@H](C)NC(=O)[C@H](CN(CC(=O)O)CC(F)(F)F)NC(=O)[C@H](CC(=O)O)NC3=O)NC1=O)CCCN2C(C)=O (stereo partly drawn)"
reported_metric = "pIC50"
reading = 7.12


query: For CC(=O)N1CCC[C@]12CC=CCCCC1(CCCC=CCCCOC(=O)N3CC[C@@](C(=O)N[C@@H](Cc4ccsc4)C(=O)N[C@@H](Cc4csc5ccccc45)C(=O)N[C@@H](CCC(N)=O)C(N)=O)(C3)NC(=O)[C@H](CC(C)C)NC(=O)[C@H](Cc3ccccc3)NC(=O)[C@H](C)NC(=O)[C@H](C)NC(=O)[C@H](Cc3c[nH]cn3)NC(=O)[C@H](CC(=O)O)NC1=O)NC(=O)[C@H](CC(C)(C)C)NC(=O)[C@H](CC(=O)O)NC2=O (stereo partly drawn) [I-1795] , what is its reported pIC50?
result: 7.55

====

Biological target: beta-catenin/TCF4 engagement (Homo sapiens, UniProt P35222)
Construct: expressed in transfected cells; host or cells: HEK293
Sequence (P35222 1-781): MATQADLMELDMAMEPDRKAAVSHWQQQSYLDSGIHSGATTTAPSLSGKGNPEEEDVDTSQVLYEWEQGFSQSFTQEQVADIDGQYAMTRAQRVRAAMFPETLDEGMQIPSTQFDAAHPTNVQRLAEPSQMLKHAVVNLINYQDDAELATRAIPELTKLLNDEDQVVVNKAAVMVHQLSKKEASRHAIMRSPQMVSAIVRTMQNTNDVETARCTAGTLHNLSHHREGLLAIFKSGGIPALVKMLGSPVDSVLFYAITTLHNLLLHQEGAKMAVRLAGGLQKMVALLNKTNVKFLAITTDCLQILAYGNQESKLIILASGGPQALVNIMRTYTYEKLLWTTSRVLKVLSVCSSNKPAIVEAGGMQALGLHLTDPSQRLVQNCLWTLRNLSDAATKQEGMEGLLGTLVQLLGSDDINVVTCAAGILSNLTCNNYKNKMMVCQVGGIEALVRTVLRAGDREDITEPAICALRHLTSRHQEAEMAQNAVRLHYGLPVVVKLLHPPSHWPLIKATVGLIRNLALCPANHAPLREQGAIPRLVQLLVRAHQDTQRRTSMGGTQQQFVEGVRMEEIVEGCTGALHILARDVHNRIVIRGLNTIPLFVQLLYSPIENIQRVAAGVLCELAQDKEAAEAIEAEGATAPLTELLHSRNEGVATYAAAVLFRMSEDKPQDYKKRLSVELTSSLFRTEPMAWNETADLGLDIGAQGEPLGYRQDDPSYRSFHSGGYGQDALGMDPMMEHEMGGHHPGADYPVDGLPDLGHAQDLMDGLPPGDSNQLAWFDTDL
Test: Nano-BRET target engagement assay (B-cat-Halo & TCF4-Luc in HEK293 cells)
Type: cell-based
Conditions: read-out: NanoBRET Abs IC50
Reported metric: pIC50
Expect pIC50 as a plain number equal to -log10 of the molar concentration.

query: For CC(=O)N1CCC[C@]12CC=CCCCC1(CCCC=CCCCOC(=O)N3CC[C@@](C(=O)N[C@@H](Cc4ccsc4)C(=O)N[C@@H](Cc4csc5ccccc45)C(=O)N[C@@H](CCC(N)=O)C(=O)N[C@@H](CCCCN)C(N)=O)(C3)NC(=O)[C@H](CC(N)=O)NC(=O)[C@H](Cc3ccccc3)NC(=O)[C@H](C)NC(=O)[C@H](C)NC(=O)[C@H](CC(=O)O)NC(=O)[C@H](CC(=O)O)NC1=O)NC(=O)[C@H](CC(C)(C)C)NC(=O)[C@H](CC(=O)O)NC2=O (stereo partly shown) , what is its reported pIC50?
result: 4.60

====

molecular target: full-length beta-Catenin (Uniprot ID P35222) (Homo sapiens, UniProt P35222); construct: 10 nM full-length beta-Catenin (Uniprot ID P35222); assay: Fluorescence polarization IC50 (beta-catenin / 5FAM-TCF4 10-53 competition); format: binding; conditions: fluorescence polarization; read-out: beta-Catenin FP IC50
Reported metric: IC50 (nM)
The answer is to be given in nM; state only the numeric part.

Answered cases to consult:
[[record]]
compound = "CC(=O)N1CCC[C@]12CC=CCCCC1(CCCC=CCCCCCC[C@@](C)(C(=O)N[C@@H](Cc3ccsc3)C(=O)N[C@@H](Cc3csc4ccccc34)C(=O)N[C@@H](CCC(N)=O)C(N)=O)NC(=O)[C@H](CC(N)=O)NC(=O)[C@H](Cc3ccccc3)NC(=O)[C@H](C)NC(=O)[C@H](C)NC(=O)[C@H](CN(CC(=O)O)CC(F)(F)F)NC(=O)[C@H](CC(=O)O)NC1=O)NC(=O)[C@H](CC1CCCCC1)NC(=O)[C@H](CC(=O)O)NC2=O (stereo partly drawn) [I-707]"
reported_metric = "IC50"
reading = 46

[[record]]
compound = "CC(=O)N1CCC[C@]12CC=CCCCC1(CCCC=CCCCOC(=O)N3CC[C@@](C(=O)N[C@@H](Cc4ccsc4)C(=O)N[C@@H](Cc4csc5ccccc45)C(=O)N[C@@H](CCC(N)=O)C(N)=O)(C3)NC(=O)[C@H](CC(C)C)NC(=O)[C@H](Cc3cccc(C(=O)O)c3)NC(=O)[C@H](C)NC(=O)[C@H](C)NC(=O)[C@H](Cc3c[nH]cn3)NC(=O)[C@H](CC(=O)O)NC1=O)NC(=O)[C@H](CC(C)(C)C)NC(=O)[C@H](CC(=O)O)NC2=O (stereo partly drawn) [I-2122]"
reported_metric = "IC50"
reading = 12


// moving on: another record for IC50
query: For CC(=O)N1CCC[C@]12CC=CCC1(CC=CCCCOC(=O)N3CC[C@@](C(=O)N[C@@H](Cc4ccsc4)C(=O)N[C@@H](Cc4csc5ccccc45)C(=O)N[C@@H](CCC(N)=O)C(N)=O)(C3)NC(=O)[C@H](CC(C)C)NC(=O)[C@H](Cc3ccccc3)NC(=O)[C@H](C)NC(=O)[C@H](C)NC(=O)[C@H](CC(=O)O)NC(=O)[C@H](CC(=O)O)NC1=O)NC(=O)[C@H](CC(C)(C)C)NC(=O)[C@H](CC(=O)O)NC2=O (stereo partly drawn) , what is its reported IC50?
result: 387
